Task for the reader: assign each of the following compounds its reported pIC50.
biological target: Syk kinase (Homo sapiens); construct: purchased; experiment: Syk kinase inhibition, Caliper LabChip off-chip mobility-shift kinase assay; format: biochemical; settings: read-out: Syk Enzyme IC50
Answers are plain numbers, as −log10 of the molar value.

> print(dat)
                                   compound  value.measured
1  O=c1[nH]ccc2cc(C3=CCOCC3)nc(Nc3ccc(N4CCOCC4)cc3)c12            7.02
2  C[C@@H]1CN(c2ccc(Nc3nc(CCC(=O)O)cc4cc[nH]c(=O)c34)cn2)CCO1            6.51

# per-item lookup of pIC50; items listed below
1. CCC(C)(C)Nc1nc(-c2cnc(N)nc2)cc2cc[nH]c(=O)c12
2. CCC(C)C(=O)N1CCC(c2ccc(Nc3nc(-c4cncc(OC)n4)cc4cc[nH]c(=O)c34)cc2C)CC1 (centres unmarked)
3. O=c1[nH]ccc2cc(-c3cnccn3)nc(Nc3ccc4c(c3)C3CNCC4C3)c12 (centres unmarked)
4. CCn1ccc2cc(Nc3cncnc3C)nc(NC(C)C)c2c1=O
5. Cc1ccnc(Nc2cc3ccn(C)c(=O)c3c(NC(C)(C)CO)n2)c1 [compound 486]

Response:
[6.55, 6.65, 5.82, 5.13, 7.35]

Quick one: give me pIC50 for each item below, same order please.
1. COc1ncc(-c2cc3cc[nH]c(=O)c3c(Nc3ccc(C4CN(C)C4)cc3)n2)cn1
2. Cc1ncc(-c2cc3cc[nH]c(=O)c3c(Nc3ccc(C4CCN(CCCF)CC4)c(C)c3)n2)cn1
3. COc1cncc(-c2cc3cc[nH]c(=O)c3c(Nc3ccc(C4CCN(C(=O)N5CCCC5)CC4)c(C)c3)n2)n1
4. COc1cncc(-c2cc3cc[nH]c(=O)c3c(Nc3ccc(C(=O)NCCN4CCCC4)cc3)n2)n1
5. Cc1nc(-c2cc3cc[nH]c(=O)c3c(Nc3ccc(N4C[C@@H](C)O[C@@H](C)C4)nc3)n2)cnc1N

Response:
7.47
7.92
5.64
7.85
6.65

Provide reported pIC50 for each item, in the same order as listed.
1. O=c1[nH]ccc2cc(Nc3ccccn3)nc(NCC3CC3)c12
2. COc1cncc(-c2cc3cc[nH]c(=O)c3c(Nc3ccc(N4CCC(OC)CC4)cc3)n2)n1

Response:
[6.51, 6.50]
